# Test system: transient receptor potential cation channel N1 (TRPN1/NompC), Danio rerio
# assay.procedure: zebrafish TRPN1 channel agonists, primary screen, cell-based, HEK293, calcium fluorescence (AID 1424);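 further: 0% = DMSO alone and 100% = 87 µM carbachol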
# measurement.conditions: HEK293 zebrafish TRPN1-YFP, Fluo-8 calcium fluorescence; at 3 µM; hits give high values; 100% = response to 87 µM carbachol
About 390 (0.18%) of roughly 220,000 compounds were called active. Shown is part of a subset that was picked to be rich in actives.
result.type: activation (%)
Answers are plain numbers, in %.

Value sought for every listed compound: activation.
1. CCOc1cc(/C=C(\C#N)c2nc(-c3cccs3)c(NC(C)=O)s2)ccc1O
2. Cc1nc2sc(C(=O)c3ccccc3)c(N)c2c2c1CCCC2
3. O=C(Nc1nc2ccc([N+](=O)[O-])cc2s1)c1ccncc1
4. O=C1NCC(=O)N(Cc2ccccc2)/C1=C/c1ccccc1
5. COCc1cc(=O)[nH]c(SC)n1
6. COc1cc(/C=N\Nc2nc(-c3cccs3)c(NC(C)=O)s2)ccc1O

26.9
-0.99
4.01
0.65
1.98
0.7

* * *

Provide the recorded activation for the entries that follow.
# System: transient receptor potential cation channel N1 (TRPN1/NompC), Danio rerio
# assay.procedure: zebrafish TRPN1 channel agonists, primary screen, cell-based, HEK293, calcium fluorescence (AID 1424);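 further: 0% = DMSO alone and 100% = 87 µM carbachol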
# measurement.conditions: HEK293 zebrafish TRPN1-YFP, Fluo-8 calcium fluorescence; at 3 µM; hits give high values; 100% = response to 87 µM carbachol
Among all 220,000 compounds or so, about 390 (0.18%) were called active. What follows is part of a selection rich in actives, with near analogues and random picks from the rest.
One number for each entry, in %.

These recorded examples may help you get a feel for the data.
# molecule, activation (%)
records = [
    ("O=C(NCCc1c[nH]c2ccccc12)C(=O)NCC1CCCO1 (stereo not drawn)", 0.46),
    ("CCOC(=O)COc1nc(C)cc(C(F)(F)F)c1C#N", -0.81),
    ("N#C/C(=C/c1cccc([N+](=O)[O-])c1)c1nnc2n1CCCCC2", 2.1),
    ("COc1ccc(C(=O)NC(=S)NNC(=O)c2c(-c3ccccc3)noc2C)cc1", 44),
    ("COc1ccc(N2C(=O)c3cccc4cccc(c34)C2=O)nn1", -0.39),
    ("Cc1cc(=O)oc2cc(OCCC[n+]3ccccc3)ccc12", 0.59),
]

Value sought for every listed molecule: activation.
1. CCOP(=O)(OCC)C(Nc1ccc([N+](=O)[O-])cc1)c1ccc(Cl)cc1 (stereo not drawn)
2. c1ccc2c(c1)OCCOCCOCCO2
3. COCc1c(N)c(C)nc(Cl)c1C#N
4. COC(=O)c1ccc(C(NC(=O)OCc2ccccc2)/C(C)=C/[C@@H](C)C(=O)NCc2ccc(OC)c(OC)c2)cc1 (stereo partly drawn)
5. Cn1ccs/c1=N\S(=O)(=O)c1ccc(C(C)(C)C)cc1
6. N#C/C(=C/c1ccc(-c2ccccc2[N+](=O)[O-])o1)C(=O)NCCN1CCCCC1
7. COc1ccc(C(C)=O)cc1COc1ccc(Cl)c(C)c1

-1.18
-2.17
-0.99
-0.55
1.16
-2.16
0.81

* * *

# Test system: transient receptor potential cation channel N1 (TRPN1/NompC), Danio rerio
# assay.procedure: zebrafish TRPN1 channel agonists, primary screen, cell-based, HEK293, calcium fluorescence (AID 1424);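 further: 0% = DMSO alone and 100% = 87 µM carbachol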
# measurement.conditions: HEK293 zebrafish TRPN1-YFP, Fluo-8 calcium fluorescence; at 3 µM; hits give high values; 100% = response to 87 µM carbachol
Screen size: about 220,000 compounds; about 390 (0.18%) were called active. The entries come from a sample that favours actives as a whole.
Provide the recorded activation for the entries that follow.
Answers are plain numbers, in %.

# molecule, assay.value
rows = [
    ("COc1cc(NC(=S)NCCSc2ccc(C)cc2)cc(OC)c1", -3.08),
]

Value sought for every listed molecule: activation.
1. CC(=O)Nc1ccccc1C(=O)C(=O)Nc1ccc(F)cc1
2. CC(NC(=O)COC(=O)c1ccc2c(c1)OCO2)c1ccccc1 (configuration not stated)

[0, 1]

Value sought for every listed molecule: activation.
1. Cc1nn(-c2ccccc2)c(NC(=O)c2cccs2)c(-c2ccc(Cl)cc2)c1=O
2. CCN1/C(=C\c2ccc3ccccc3[n+]2CC)Sc2cc(C)ccc21
3. CC1=CC2=NC(=O)/C(=C/c3coc4ccccc4c3=O)C(=N)N2O1
4. COc1cc(OC)c(C(=O)NC2CC(C)(C)NC(C)(C)C2)cc1OC
5. O=[N+]([O-])/C=C1\CCCCCN1
6. CCOc1cc(/C=C2/C(=N)N3OC(C)=CC3=NC2=O)ccc1OC
7. O=C1CC(N2CCN(c3ccc(F)cc3)CC2)C(=O)N1c1ccccc1 (configuration not stated)

1. -0.42
2. 38.4
3. 35.5
4. 2.05
5. 3.32
6. -0.5
7. 0.96
